Assay: Cytotoxicity against V79 cells assessed as viability at 8 mM after 24 hrs by MTT assay
Type: cell-based, Cricetulus griseus
Settings: chinese hamster, read-out: Activity
measured-attribute: viability at 24 h, 8000 µM
Write the figure, then the unit, nothing else.

Could you tell me which viability at 24 h, 8000 µM is on file for `Cc1ccc2c(c1)[S+]([O-])c1cc(C)ccc1OCC(=O)NCCNCCNC(=O)CO2` ?
24%
